System: SK-MEL-5 melanoma
test name: NCI-60 one-dose screen, 48 h (100 = growth as untreated, 0 = no growth, -100 = all killed)
setup conditions: 10 µM unless noted
About 83,000 compounds went through this panel and 20% of them were active in at least one assay; those are over-represented in the sample as a whole.
Could you please report measured growth for the items listed next?
Number only, in %; omit the unit.

Per the record, `Cn1c(C#N)ccc1-c1ccc(F)c(NC(=O)c2ccc(F)cc2)c1` has growth of 75.9

Per the record, `Cc1cccc(N2C(=O)/C(=C/C(Cl)=C/c3ccc([N+](=O)[O-])cc3)SC2=S)c1C` has growth of -33.4

Per the record, `Cc1ccc2cnc(N)c(C#Cc3cc(C(=O)Nc4ccc(CN5CCN(C)CC5)c(C(F)(F)F)c4)cnc3C)c2c1` has growth of 26.8

Per the record, `COC(=O)[C@@]1(C)CC[C@]2(C)CC[C@]3(C)C4=CC=C5C(=CC(=O)C(O)=C5C)[C@]4(C)[C@@H](O)C[C@@]3(C)[C@@H]2C1` has growth of 60.7
